# target_of_assay: KalbSec14 (Rattus norvegicus, UniProt P97924, N62Y/T46S)
# Construct: His6 (TEV-cleavable) (N, cleaved yes); made in house; host or cells: E. coli BL21(DE3)
# assay_details: Liposome flotation binding assay (Accudenz gradient, Western blot)
# test_context: mean of independent experiments; normalized to total protein recovered; test lipid 8% of liposome lipid
measurement_label: Fraction 1 protein content (top fraction, liposome-bound), densitometry, Ave.
One number for each entry.

Provide the reported Fraction 1 protein content (top fraction, liposome-bound), densitometry, Ave. of each entry below, same order.
1. CCCCCCCCCCCCC(=O)OC[C@@H](O)COP(=O)(O)OC[C@H](N)C(=O)O
2. CCCCCCCCCCCCCC(=O)OC[C@@H](O)COP(=O)(O)OCC(O)CO (mixture of isomers)
3. CCCCCCCCCCCCC(=O)OC[C@@H](O)COP(=O)(O)OC1C(O)C(O)C(O)C(O)C1O (stereo partly shown)
4. CCCCCCCCCCCCCC(=O)OC[C@H](COP(=O)([O-])OCC[N+](C)(C)C)OC(=O)CCCCCCCCCCCCC

result:
1: 0.03; 2: 0.05; 3: 0.028; 4: 0.0259
